IC50 data for Dual specificity protein phosphatase 3 (Homo sapiens) follow.

molecule	measurement_target	IC50
CC[C@H](C)[C@H](NC(=O)N[C@@H]1CCCCNC(=O)[C@H](Cc2ccccc2)NC(=O)[C@H](Cc2c[nH]c3ccccc23)N(C)C(=O)[C@H](CC(C)C)NC(=O)[C@H](C(C)C)NC1=O)C(=O)O [BRUNSVICAMIDE A]	Dual specificity protein phosphatase 3 (Homo sapiens)	> 100 µM

Moving on to another molecule below.
Exam item: Hi! What's the reported IC50 for "CC[C@H](C)[C@H](NC(=O)N[C@@H]1CCCCNC(=O)[C@H](Cc2ccccc2)NC(=O)[C@H](Cc2c[nH]c3ccccc23)N(C)C(=O)[C@H](CC(C)C)NC(=O)[C@H]([C@@H](C)CC)NC1=O)C(=O)O" on Dual specificity protein phosphatase 3 (Homo sapiens)?
Marked response: > 100 µM

* * *

IC50 data for M-phase inducer phosphatase 1 (Homo sapiens) follow.

molecule	IC50
CC[C@H](C)[C@H](NC(=O)N[C@@H]1CCCCNC(=O)[C@H](Cc2ccccc2)NC(=O)[C@H](Cc2c[nH]c3ccccc23)N(C)C(=O)[C@H](CC(C)C)NC(=O)[C@H](C(C)C)NC1=O)C(=O)O [BRUNSVICAMIDE A]	> 100 µM

Moving on to another molecule below.
Exam item: Field request: IC50 | item: "CC[C@H](C)[C@H](NC(=O)N[C@@H]1CCCCNC(=O)[C@H](Cc2ccccc2)NC(=O)[C@H](Cc2c[nH]c3ccccc23)N(C)C(=O)[C@H](CC(C)C)NC(=O)[C@H]([C@@H](C)CC)NC1=O)C(=O)O"
Marked response: > 100 µM

Recorded values, source ChEMBL document CHEMBL1145344.
